Each entry below carries its recorded TGI.
Tested on: DU-145 prostate
assay_protocol: NCI tumour cell line growth inhibition, 48 h

| compound | measured_on | TGI |
| --- | --- | --- |
| Cc1cc(Cl)ccc1NC(=O)/C(Cl)=C(/Cl)C(=O)O | DU-145 prostate | 61.4 µM |
| O=C(O)CN(CC(=O)O)Cc1cc2c(cc1O)Oc1cc(O)c(CN(CC(=O)O)CC(=O)O)cc1C21OC(=O)c2ccccc21 | DU-145 prostate | > 100 µM |
| CCOC(=O)N1CC2(C(=O)OC)C=CC1C(C(=O)OC)C2 (stereo not drawn) | DU-145 prostate | > 100 µM |
| CCOc1cc(C=O)c2c(ccc3ccc(OC)c(OC)c32)c1OC | DU-145 prostate | > 100 µM |
| O=C(O)CN1CCNCCN(CC(=O)O)CCNCC1 | DU-145 prostate | > 100 µM |
| O=C1C=C(c2c(-c3ccccc3)[nH]c3ccccc23)C(=O)N1c1ccccc1 | DU-145 prostate | 15.7 µM |
| CSc1c(CC(=O)O)n(Cc2ccccc2)c2ccccc12 | DU-145 prostate | > 100 µM |
| O=C(c1ccccn1)c1nnn2ccccc12 | DU-145 prostate | > 100 µM |
| O=C(CC(=O)N(C(=O)c1ccccc1)c1ccc(Cl)cc1)N/N=C\c1ccccc1O | DU-145 prostate | > 100 µM |
| COc1cc(CNc2nc3ccccc3nc2-c2cccs2)cc(OC)c1OC | DU-145 prostate | > 100 µM |
| CCOC(=O)C1c2[nH]c3ccccc3c2CCN1C(=O)c1ccco1 (stereo not drawn) | DU-145 prostate | > 10 µM |
| COc1ccc(/C=C2\N=C(c3ccccc3)N(c3cc(C(F)(F)F)ccc3Cl)C2=O)cc1OC | DU-145 prostate | > 100 µM |
| COc1ccc(-c2cn(-c3ccc(Cl)cc3)c(=S)[nH]2)cc1OC | DU-145 prostate | > 100 µM |

---

System: PC-3 prostate
assay_protocol: NCI tumour cell line growth inhibition, 48 h
observed_property: TGI

| compound | observed_property | endpoint_result |
| --- | --- | --- |
| COc1cc(C(=O)NC2CCN(C)CC2)ccc1Nc1ncc2c(n1)N(C1CCCC1)CC(F)(F)C(=O)N2C | TGI | 21.4 µM |
| CC(C)(C)c1ccc(-c2nc3ccccc3c(=O)o2)cc1 | TGI | > 100 µM |
| COC1OCC(OS(=O)(=O)c2ccc(C)cc2)C(OC(=O)c2ccccc2)C1OC(=O)c1ccccc1 (configuration not stated) | TGI | > 100 µM |
| CN(C)CCCc1cccnc1 | TGI | > 100 µM |
| COc1ccc(-c2nc(N)c(C#N)c3c2CCSc2ccc(C)cc2-3)cc1OC | TGI | > 100 µM |
| CCCCOP(=O)(OCCCC)/C(C#N)=C/c1ccc(C)o1 | TGI | 51.4 µM |
| O=C1C=C(c2c(-c3ccccc3)[nH]c3ccccc23)C(=O)N1c1ccccc1 | TGI | 21.8 µM |
| CC(=O)O[C@H]1C(=O)[C@@]2(C)[C@H]([C@H](OC(=O)c3ccccc3)[C@]3(O)C[C@H](OC(=O)[C@H](O)[C@@H](NC(=O)c4ccccc4)C4CCCCC4)C(C)=C1C3(C)C)[C@]1(OC(C)=O)CO[C@@H]1C[C@@H]2O | TGI | 2.91 µM |
| COc1ccc(/C=C2\N=C(c3ccccc3)N(c3cc(C(F)(F)F)ccc3Cl)C2=O)cc1OC | TGI | > 100 µM |
| Brc1ccccc1/C=C\C1(c2ccccc2)OCCO1 | TGI | 34.1 µM |
| CC(C)(C)C(=O)OCOP(=O)(OCOC(=O)C(C)(C)C)C1CCCN(OC(=O)c2ccccc2)C1=O (configuration not stated) | TGI | > 100 µM |
| O=C(O)c1cc(N/C=C2\C(=O)c3ccccc3OC2O)ccc1O (configuration not stated) | TGI | 120 µg/mL |
| Cc1nc2c(O)cccc2c(=O)[nH]1 | TGI | > 1000 µM |
| COc1ccc(N2C(=O)C3c4[nH]c5ccccc5c4C4CCCCCCCC4C3C2=O)cc1 (configuration not stated) | TGI | > 10 µM |
| COc1ccc(S(=O)(=O)N2CCN(C(=O)OCc3ccccc3)CC2C(=O)NO)cc1 (configuration not stated) | TGI | > 25 µM |
| O=C(CCCCC(=O)N/N=C\c1ccccc1Cl)N/N=C\c1ccccc1Cl | TGI | > 100 µM |
| COc1ccc(-c2cn(-c3ccc(Cl)cc3)c(=S)[nH]2)cc1OC | TGI | > 100 µM |
| COc1cc(CNc2nc3ccccc3nc2-c2cccs2)cc(OC)c1OC | TGI | 39.4 µM |
| CC(=O)Oc1ccc2ccc(=O)oc2c1OC(C)=O | TGI | > 100 µM |
| CCc1ccc(CCC(=O)Nc2ncc(Cc3cc(Cl)ccc3Cl)s2)o1 | TGI | > 50 µM |
| CC1=Nc2nc3ccccc3n2C(C)(C)C1 | TGI | > 100 µM |
| CC(=O)c1c2c(cc3c1CC1(Cc4cc5c(cc4C1=O)CCC5)C3)CCC2 (configuration not stated) | TGI | > 100 µM |

The values you see were collected from PubChem BioAssay (NCI).
